Field: MIC. Provide a value for each of the molecules that follow.
# Test system: Mycobacterium tuberculosis
# EXPERIMENT NOTES: Antimycobacterial activity against Mycobacterium tuberculosis H37Rv grown on Lowenstein-Jensen solid medium assessed as growth inhibition incubated with compound dissolved in water measured after 4 weeks
# Assay type: functional
# CONDITION INFO: 672 h
Please state the number and follow it with the unit.

Q: Give the measured MIC for COc1ccc(-c2oc3cc(O)c(OC)c(O)c3c(=O)c2OC)cc1 [SANTIN]
A: 51 µg/mL

Q: Give the measured MIC for O=C1CCc2nccc3c4ccccc4n1c23
A: 49.3 µg/mL

Q: Give the measured MIC for COc1ccc2c(c1OC)C=NC1C2CCC2CC3OCOC3CC21.Cl (stereo not drawn)
A: 50.3 µg/mL
